Each entry below carries its recorded SPOT intensity.
- Measurement Target: T1, Boi2, P39969
- T1 sequence (P39969 32-116, looked up): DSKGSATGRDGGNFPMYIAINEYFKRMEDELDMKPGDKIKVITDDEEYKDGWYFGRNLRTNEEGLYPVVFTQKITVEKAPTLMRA
- Assay Remarks: SPOT array
- Setup Conditions: median of control spots 1161
Measurement Kind: SPOT intensity

INSERT INTO measurements (binder, result) VALUES
  ('TKHKAPPPPPPTAET', 1),
  ('LRWRHKFFLPAIAAI', 0),
  ('RRSKSLPTTPGIRSG', 1),
  ('NRARYLPQNPDIIAG', 0),
  ('PPIPNAPLSPAPAVP', 0),
  ('LPPPPPPPPPPPLPQ', 0),
  ('PELAPKREAPKPPAN', 1);
